# assay_explanation: Water solubility
# setup_conditions: Water Solubility, in 100% water; solubility calculated using ε of MIK-G6 (p-N-acetyl SB-3CT)
measure: solubility (µg/mL)

>>> test_result("Cc1oc(=O)oc1COC(=O)Nc1ccc(Oc2ccc(S(=O)(=O)CC3CS3)cc2)cc1 (stereo not shown)")
1.01

====

# assay_explanation: Half-life in mouse liver microsomes
measure: half-life

>>> test_result("N=C(N)NCCCC(N)C(=O)Nc1ccc(Oc2ccc(S(=O)(=O)CC3CS3)cc2)cc1 (stereo not shown) [Compound 11d]")
"> 1 h"

====

# assay_explanation: Half-life in rat liver microsomes
measure: half-life (min)

>>> test_result("N=C(N)NCCCC(N)C(=O)Nc1ccc(Oc2ccc(S(=O)(=O)CC3CS3)cc2)cc1 (stereo not shown) [Compound 11d]")
59.3

====

# assay_target: human MMP-9 (Homo sapiens, UniProt P14780)
# Sequence (P14780 107-707 limits assumed): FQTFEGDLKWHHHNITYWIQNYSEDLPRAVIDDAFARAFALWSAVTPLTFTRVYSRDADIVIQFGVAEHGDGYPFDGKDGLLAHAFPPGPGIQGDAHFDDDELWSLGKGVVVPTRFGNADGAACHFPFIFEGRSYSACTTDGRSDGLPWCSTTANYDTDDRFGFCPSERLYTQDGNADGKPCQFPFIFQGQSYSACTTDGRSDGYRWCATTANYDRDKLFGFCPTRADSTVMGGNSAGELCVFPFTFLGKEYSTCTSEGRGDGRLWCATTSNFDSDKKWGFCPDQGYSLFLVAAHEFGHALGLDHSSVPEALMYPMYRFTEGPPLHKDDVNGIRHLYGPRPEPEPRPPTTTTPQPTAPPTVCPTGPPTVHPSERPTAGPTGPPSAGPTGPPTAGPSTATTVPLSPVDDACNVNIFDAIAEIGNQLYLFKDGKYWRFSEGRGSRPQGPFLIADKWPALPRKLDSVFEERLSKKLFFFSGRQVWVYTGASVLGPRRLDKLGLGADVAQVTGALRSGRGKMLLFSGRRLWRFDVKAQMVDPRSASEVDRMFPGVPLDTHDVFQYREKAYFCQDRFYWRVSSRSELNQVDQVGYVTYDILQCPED
# assay_explanation: biochemical
pKi: −log10 of the molar value.
measure: pKi

>>> test_result("NC(CCC(=O)O)C(=O)Nc1ccc(Oc2ccc(S(=O)(=O)CC3CS3)cc2)cc1 (stereo not shown) [Compound 11c]")
5.27

====

Let's look at some compounds and their measured half-life.
# assay_explanation: Half-life in human plasma at 37° C.
# setup_conditions: human, plasma
measure: half-life (min)

>>> test_result("N=C(N)NCCCC(N)C(=O)NC(CCCNC(=N)N)C(=O)Nc1ccc(Oc2ccc(S(=O)(=O)CC3CS3)cc2)cc1 (centres unmarked) [Compound 11e]")
11.8
>>> test_result("NC(CCC(=O)O)C(=O)Nc1ccc(Oc2ccc(S(=O)(=O)CC3CS3)cc2)cc1 (centres unmarked) [Compound 11c]")
32.8
>>> test_result("NCCCCC(N)C(=O)Nc1ccc(Oc2ccc(S(=O)(=O)CC3CS3)cc2)cc1 (centres unmarked) [Compound 11b]")
25.1
>>> test_result("Cc1oc(=O)oc1COC(=O)Nc1ccc(Oc2ccc(S(=O)(=O)CC3CS3)cc2)cc1 (centres unmarked) [Compound 14]")
1.6
>>> test_result("N=C(N)NCCCC(N)C(=O)Nc1ccc(Oc2ccc(S(=O)(=O)CC3CS3)cc2)cc1 (centres unmarked) [Compound 11d]")
29.5

====

# assay_target: human MMP-2 (Homo sapiens, UniProt P08253)
# Sequence (P08253 110-660): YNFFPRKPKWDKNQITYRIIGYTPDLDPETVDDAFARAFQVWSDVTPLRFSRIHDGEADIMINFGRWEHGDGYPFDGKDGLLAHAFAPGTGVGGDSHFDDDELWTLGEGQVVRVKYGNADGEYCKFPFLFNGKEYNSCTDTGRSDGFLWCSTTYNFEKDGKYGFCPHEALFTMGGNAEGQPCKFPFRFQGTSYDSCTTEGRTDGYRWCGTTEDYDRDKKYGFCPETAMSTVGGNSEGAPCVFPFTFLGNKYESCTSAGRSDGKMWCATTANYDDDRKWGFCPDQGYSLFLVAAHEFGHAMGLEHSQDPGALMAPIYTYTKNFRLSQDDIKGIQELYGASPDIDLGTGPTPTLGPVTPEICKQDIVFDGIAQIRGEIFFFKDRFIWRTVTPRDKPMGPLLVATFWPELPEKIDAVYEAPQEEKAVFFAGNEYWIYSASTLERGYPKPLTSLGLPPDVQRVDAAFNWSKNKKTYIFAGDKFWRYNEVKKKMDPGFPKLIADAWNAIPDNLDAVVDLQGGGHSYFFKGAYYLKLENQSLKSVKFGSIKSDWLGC
# assay_explanation: biochemical
pKi: −log10 of the molar value.
measure: pKi

>>> test_result("Cc1oc(=O)oc1COC(=O)Nc1ccc(Oc2ccc(S(=O)(=O)CC3CS3)cc2)cc1 (stereo not shown) [Compound 14]")
5.62

====

# assay_explanation: Half-life in human blood at 37° C.
# setup_conditions: human, blood
Let's look at some molecules and their measured half-life.
measure: half-life (min)

>>> test_result("N=C(N)NCCCC(N)C(=O)Nc1ccc(Oc2ccc(S(=O)(=O)CC3CS3)cc2)cc1 (stereo not shown) [Compound 11d]")
25.4
>>> test_result("N=C(N)NCCCC(N)C(=O)NC(CCCNC(=N)N)C(=O)Nc1ccc(Oc2ccc(S(=O)(=O)CC3CS3)cc2)cc1 (stereo not shown) [Compound 11e]")
5.9
>>> test_result("NCCCCC(N)C(=O)Nc1ccc(Oc2ccc(S(=O)(=O)CC3CS3)cc2)cc1 (stereo not shown) [Compound 11b]")
15.3
>>> test_result("NC(CCC(=O)O)C(=O)Nc1ccc(Oc2ccc(S(=O)(=O)CC3CS3)cc2)cc1 (stereo not shown) [Compound 11c]")
27.9

meta.source: patent US9867805B2
